These entries and their values trace back to the NIST ThermoML archive (doi:10.1016/j.fluid.2019.02.006).

Conditions: 298.15 K; 100 kPa; Liquid; Vibrating tube method
I'd appreciate it if you marked entries TRUE when mass density is lower than 800 kg/m3 and FALSE when it is not.

chemical_structure: C1CCCCC1
cat: TRUE

stdin: Item "CCCCCCCCCCO" : mass density beneath 800 kg/m3, strictly?
stdout: FALSE

* * *

Conditions: 298.15 K; 100 kPa; Liquid; Vibrating tube method
± gives the expanded uncertainty stated by the source.
observation_type: mass density
Reply with the number and its unit after it.

# annotated cases, reported mass density shown
compound: CCCCCCCCCO [nonan-1-ol]
mass density: 824 ± 1 kg/m3
//
compound: CCCCCO [pentan-1-ol]
mass density: 810.8 ± 1 kg/m3
//
compound: CCCCCCO [hexan-1-ol]
mass density: 815.1 ± 1 kg/m3
//
compound: CCCCCCCCO [octan-1-ol]
mass density: 821.4 ± 1 kg/m3

Consider the record given below.
stdin: What mass density value was documented for this compound, CCCCCCCO [heptan-1-ol] ?
stdout: 818.7 ± 1 kg/m3
